# protocol-details: ATG_TCF_b_cat_CIS: Attagene CIS-FACTORIAL HepG2 Assay for human T-Cell-Factor with beta-catenin (TCF/b-cat) (AID 2282965)
# recorded-conditions: HepG2 TCF/beta-catenin cis-reporter transcription, actives raise or lower the signal
The source made the active and inactive calls. How the source made its calls: active means hit-call score of the fitted dose curve at least 0.9, where 1 is the maximum; inactive means score below 0.9.
Your reply should match one of these outcome classes. active, inactive

{"molecule": "c1ccc2sc(SSN3CCOCC3)nc2c1", "category-label": "inactive"}
{"molecule": "CC(C=O)c1ccccc1 (stereo unspecified)", "category-label": "inactive"}

Please state the recorded outcome for this molecule: Clc1cccnc1 inactive

What was the test verdict on CCCCCCCC(=O)OCC ? inactive

Any idea what this test logged for O=C(O)CCC(=O)O ? inactive

Field: outcome | Entry: CC1=CC(C)C(C=O)CC1 (stereo unspecified) inactive

For CCCCCCCC(=O)OCC(COC(=O)CCCCCCC)OC(=O)CCCCCCC , what call appears in the results of this test? inactive

Dear all, I need the recorded test outcome for O=C(O)CC(C(=O)O)S(=O)(=O)O (stereo unspecified) , thank you. inactive

How was CCCCC(=O)O classified in this test? inactive

I'd appreciate the recorded outcome for C=C[Si](OCCOC)(OCCOC)OCCOC from this test. inactive
